# Wirksamkeit in % Substanz +Talcord listing for each entry below
system: Kornkäfer (sitophilus granarius L); experiment: whole plant or invertebrate; assay type: in vivo; conditions: amine 1 mg/ml mixed 1 : 1 with Talcord 0,01 mg/ml; 3 h

| COMPOUND | MEASURED_PROPERTY | RESULT |
| --- | --- | --- |
| C(CCCN1CCCC1)CCN1CCCC1 [1,6-N,N-Di-pyrrolidino-hexan] | Wirksamkeit in % Substanz +Talcord | 41,2% |
| COc1cc(C=O)cc(CN2CCCCC2)c1O | Wirksamkeit in % Substanz +Talcord | 40,0% |
| c1ccc(OCCCN2CCCCCC2)cc1 [N-3-Phenoxi-propyl-(1)-hexamethylenimin] | Wirksamkeit in % Substanz +Talcord | 33,2% |
| c1ccc(OCCCN2CCCCC2)cc1 [N-(1-Phenoxi-propyl-(3))-piperidin] | Wirksamkeit in % Substanz +Talcord | 29,2% |

Turning now to a further compound:
IN: Which Wirksamkeit in % Substanz +Talcord is reported for this compound? C(CCCCCN1CCCCC1)CCCCN1CCCCC1 [1,10-N,N-Di-piperidino-decan]
OUT: 58,8%
